target-desc: BRAF V600E (Homo sapiens, UniProt P15056, V600E)
Construct: expressed in transfected cells
Sequence (P15056 whole entry V600E): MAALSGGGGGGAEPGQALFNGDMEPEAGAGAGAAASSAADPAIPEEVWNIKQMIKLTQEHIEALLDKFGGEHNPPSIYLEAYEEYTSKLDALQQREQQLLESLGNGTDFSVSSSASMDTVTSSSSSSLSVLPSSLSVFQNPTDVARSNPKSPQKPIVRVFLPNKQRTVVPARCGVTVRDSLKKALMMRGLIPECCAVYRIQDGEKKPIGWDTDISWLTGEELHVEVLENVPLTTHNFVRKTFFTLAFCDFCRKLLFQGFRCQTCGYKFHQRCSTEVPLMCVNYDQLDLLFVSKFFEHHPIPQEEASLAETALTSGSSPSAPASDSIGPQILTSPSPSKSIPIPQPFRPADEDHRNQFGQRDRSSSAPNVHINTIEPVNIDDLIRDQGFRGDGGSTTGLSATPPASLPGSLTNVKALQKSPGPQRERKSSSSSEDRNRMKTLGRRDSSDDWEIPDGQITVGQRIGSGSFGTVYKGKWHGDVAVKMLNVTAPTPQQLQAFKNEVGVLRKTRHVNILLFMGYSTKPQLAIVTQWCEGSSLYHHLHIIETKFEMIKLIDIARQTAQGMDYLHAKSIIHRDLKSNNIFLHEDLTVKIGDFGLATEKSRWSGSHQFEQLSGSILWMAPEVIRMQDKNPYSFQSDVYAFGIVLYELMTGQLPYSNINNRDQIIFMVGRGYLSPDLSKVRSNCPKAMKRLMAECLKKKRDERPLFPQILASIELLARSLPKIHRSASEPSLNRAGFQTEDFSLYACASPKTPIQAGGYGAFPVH
assay-details: Cellular assay of target protein degradation, T-Rex 293 cells stably transfected with HA-BRAF_V600E (HA immunofluorescence, high content imaging)
Type: cell-based
measurement-conditions: half maximal degradation, T-Rex 293 HA-BRAF V600E; read-out: BRaf V600E DC50
Entries and their measured DC50 follow.
property-measured: DC50

| compound | property-measured | value-measured |
| --- | --- | --- |
| O=C1CCC(N2Cc3cc(N4CCC(CCC5CCN(c6ccc(-c7cnc8[nH]cc(C(=O)c9c(F)ccc(NS(=O)(=O)N%10CC[C@@H](F)C%10)c9F)c8c7)cc6)CC5)CC4)ccc3C2=O)C(=O)N1 (some centres unmarked) | DC50 | 50 to 500 nM |
| O=C1CC[C@@H](N2Cc3cc(C4CCN(CC5CCN(c6ccc(-c7cnc8[nH]cc(C(=O)c9c(F)ccc(NS(=O)(=O)N%10CC[C@@H](F)C%10)c9F)c8c7)cc6)CC5)CC4)ccc3C2=O)C(=O)N1 | DC50 | 5 to 50 nM |
| C[C@@H]1C[C@H](CN2CCC(c3ccc4c(c3)CN([C@@H]3CCC(=O)NC3=O)C4=O)CC2)CCN1c1ccc(-c2cnc3[nH]cc(C(=O)c4c(F)ccc(NS(=O)(=O)N5CC[C@@H](F)C5)c4F)c3c2)cc1 | DC50 | 5 to 50 nM |
| COc1cc(N2CC3(CN(CC4CCN(c5ccc(-c6cnc7[nH]cc(C(=O)c8c(F)ccc(NS(=O)(=O)N9CC[C@@H](F)C9)c8F)c7c6)cn5)CC4)C3)C2)cc2c1C(=O)N(C1CCC(=O)NC1=O)C2 (some centres unmarked) | DC50 | 5 to 50 nM |
| O=C1CCC(N2Cc3cc(CCCCN4CCC(c5ccc(-c6cnc7[nH]cc(C(=O)c8c(F)ccc(NS(=O)(=O)N9CC[C@@H](F)C9)c8F)c7c6)cc5)CC4)ccc3C2=O)C(=O)N1 (some centres unmarked) | DC50 | 5 to 50 nM |
